FYI, the data here is from PubChem BioAssay (EPA / NIEHS).

- test-protocol: ATG_RORE_CIS: Attagene CIS-FACTORIAL HepG2 Assay for human RAR-related Orphan Receptor Element (RORE) (AID 2282959)
- protocol-conditions: HepG2 Attagene cis-factorial RORE reporter, mRNA; actives raise or lower the signal
Active and inactive are the calls of the source. How the source made its calls: active means hit-call score of the fitted dose curve at least 0.9, where 1 is the maximum; inactive means score below 0.9.
Please answer using one outcome listed in class 1 = active, class 0 = inactive

Completed entries (count: 5):
# compound, category
measured = [
    ("C=CC(=O)OC", "class 0"),
    ("CN1C(=O)CCS(=O)(=O)C1c1ccc(Cl)cc1 (configuration not stated)", "class 0"),
    ("O=c1[nH]c(Cl)c(Cl)cc1Cl", "class 0"),
    ("Nc1ccccc1C(=O)OCCc1ccccc1", "class 1"),
    ("O=[N+]([O-])c1cc([N+](=O)[O-])c2ccccc2c1", "class 0"),
]

Prompt: State the result this test recorded for "C[C@]12CC[C@H]3[C@@H](CC[C@@]45O[C@@H]4C(O)=C(C#N)C[C@]35C)[C@@H]1CC[C@@H]2O" .
Completion: class 0

Prompt: State the result this test recorded for "C[N+](=O)[O-]" .
Completion: class 0
